experimental system: honeybee tachykinin-related peptide receptor, FLAG-TRPR expressed in Sf21 cells (Apis mellifera)
measurement notes: competitive binding of a fluorescent ligand on cells
Where no end group is shown, it is not given here.
Measured pIC50 values are reported for all entries that follow.
By convention, pIC50 is the negative base-10 log of a molar concentration.

Exam item: Return value of pIC50 for input ALMGFQGVR-NH2 [tachykinin-related peptide 2 (TRP2), unlabeled] , no commentary.
Marked response: 8.06

Exam item: Return value of pIC50 for input APMGFQGMR-NH2 [tachykinin-related peptide 3 (TRP3), unlabeled] , no commentary.
Marked response: 7.46
